Property: In vitro activity relative to native peptide (%) vs. GIP; scope: individual binders
Biological target: T1, human GIP receptor (human, UniProt P48546 22-466)
T1 sequence (looked up): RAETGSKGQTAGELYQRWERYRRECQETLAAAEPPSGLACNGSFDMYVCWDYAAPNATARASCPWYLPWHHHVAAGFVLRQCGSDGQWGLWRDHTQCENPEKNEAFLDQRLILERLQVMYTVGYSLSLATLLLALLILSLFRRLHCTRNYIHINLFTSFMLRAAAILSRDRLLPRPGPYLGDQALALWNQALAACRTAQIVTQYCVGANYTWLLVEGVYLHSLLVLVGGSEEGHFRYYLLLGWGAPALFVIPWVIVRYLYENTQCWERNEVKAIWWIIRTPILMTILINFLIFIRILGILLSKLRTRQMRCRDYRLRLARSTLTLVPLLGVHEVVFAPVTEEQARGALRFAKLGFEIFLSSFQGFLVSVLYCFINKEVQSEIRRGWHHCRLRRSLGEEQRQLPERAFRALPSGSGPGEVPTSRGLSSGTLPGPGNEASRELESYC
Assay: cell-based or functional assay
Bridges are numbered along the chain shown (N, C = ends). Where no end group is shown, it is not given here. [ ]: non-standard residue; d: D form. The star is where a group is joined. Acetyl(2-(4-imidazolyl)) = O=C(Cc1c[nH]cn1)*; Aib = CC(C)(N)C(=O)O
Report the value in % with no unit label.

Looking up [Acetyl(2-(4-imidazolyl))][Aib]QGTFTSDKSSYLDERAAQDFVQWLLDGGPSSGAPPPSS (not fully specified) [triple agonist of SEQ ID NO: 38] , I see its In vitro activity relative to native peptide (%) vs. GIP listed as 1

Looking up Y[Aib]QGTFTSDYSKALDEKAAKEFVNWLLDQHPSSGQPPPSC (bridge 16-20) [triple agonist of SEQ ID NO: 101] , I see its In vitro activity relative to native peptide (%) vs. GIP listed as 40.1
